# experimental system: NOS1, P29475
# Sequence (P29475 9-101): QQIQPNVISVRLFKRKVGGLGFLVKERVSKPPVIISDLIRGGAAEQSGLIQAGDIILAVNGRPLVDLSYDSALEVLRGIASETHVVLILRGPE
# test protocol: holdup assay
# Design: key: below the threshold = too weak to quantify, mostly under pKd 3.1 to 4
# test settings: plain residues with an end cap or a label only (N-terminal biotin on a linker: ado-ado)

| binder | pKd |
| --- | --- |
| SGDGKTSVWI [GJC1, P36383] | 4.1 |
| ATKDKKITTV [EXOC4, Q96A65] | 3.69 |
| LPPPESESKV [KCNJ9, Q92806] | below the threshold |
| YAEKRMLTEV [KCNA6, P17658] | below the threshold |
| PKSNSSKEYV [CLDN7, O95471] | 3.57 |
| VISSDDLTEL [CAPN6, Q9Y6Q1] | below the threshold |
| ADEMICITTL [CACNA1D, Q01668] | 3.58 |
| GDSSRKEYFI [GYPC, P04921] | 3.64 |
| FHSIKQSTAV [CRHR1, P34998] | 4.19 |
| MLPANYVEAI [NEB, P20929] | 3.52 |
| QRYPGNQTTC [CCL24, O00175] | below the threshold |
| NSTHNLKDYV [CLDN20, P56880] | 3.58 |
| DFKHTKSFII [JAM2, P57087] | 3.75 |
